# Tested On: K-Ras G12E (Homo sapiens, UniProt P01116, G12E)
# Construct: human K-Ras (G12E, aa 1-169); 6xHis tag + TEV cleavage site (N, cleaved yes); made in house; host or cells: E. coli BL21(DE3)
# Assay Info: Covalent modification of test protein after incubation with compound
# Format: binding
# Applied Conditions: 24-h incubation with 100 μM compound at 23° C. at pH 7.5
Values of % covalent modification of K-Ras G12E greater than or equal to 6% map to fulfilled; values below map to not fulfilled.

>  <Compound>
CN1CCC[C@@H]1COc1nc2c(c(N3CCC4(CC3)CNC4=O)n1)CCN(c1cccc3cccc(Cl)c13)C2

>  <Class Assignment>
not fulfilled

$$$$
>  <Compound>
CC1(c2cc(NCC(=O)N3CC[C@H]4C(=O)O[C@H]4C3)c(O)cc2Cl)CC1

>  <Class Assignment>
not fulfilled

$$$$
>  <Compound>
N#CC[C@H]1CN(c2nc(OCC34CCCN3CCC4)nc3c(F)c(-c4cccc5cccc(Cl)c45)ncc23)CCN1C(=O)C1CC(=O)O1 (stereo partly shown)

>  <Class Assignment>
fulfilled

$$$$
>  <Compound>
Cc1ccc2[nH]ncc2c1-c1cc2ncnc(N3CC(C(=O)N[C@@H]4COC4=O)C3)c2cc1Cl

>  <Class Assignment>
fulfilled

$$$$
>  <Compound>
C#Cc1c(F)ccc2cc(O)cc(-c3ncc4c(N5C[C@H]6CC[C@@H](C5)N6C(=O)[C@@H]5OC(=O)[C@H]5C(C)C)nc(OC[C@@]56CCCN5C[C@H](F)C6)nc4c3F)c12

>  <Class Assignment>
not fulfilled

$$$$
>  <Compound>
CC1(c2cc(NCC(=O)N3CC[C@H]4OC(=O)[C@H]4C3)c(O)cc2Cl)CC1

>  <Class Assignment>
fulfilled

$$$$
>  <Compound>
C#Cc1cccc2cccc(-c3ncc4c(N5C[C@H]6CC[C@@H](C5)N6C(=O)C5CC(=O)O5)nc(OCC56CCCN5CCC6)nc4c3F)c12 (mixture of isomers) [(RS)-1]

>  <Class Assignment>
fulfilled

$$$$
>  <Compound>
CN1CCC[C@@H]1COc1nc2c(c(N3CCC4(CC3)CN(S(=O)(=O)O)C4=O)n1)CCN(c1cccc3cccc(Cl)c13)C2

>  <Class Assignment>
not fulfilled

$$$$
>  <Compound>
CN1CCC[C@@H]1COc1nc2c(c(N3CCN4C(=O)C[C@H]4C3)n1)CCN(c1cccc3cccc(Cl)c13)C2

>  <Class Assignment>
not fulfilled

$$$$
>  <Compound>
CN1CCC[C@@H]1COc1nc2c(c(N3CC[C@@]4(C)C(=O)O[C@H]4C3)n1)CCN(c1cccc3cccc(Cl)c13)C2

>  <Class Assignment>
not fulfilled

$$$$
>  <Compound>
O=C1O[C@H]2CN(c3nc(OCC45CCCN4CCC5)nc4c(F)c(-c5cccc6cccc(Cl)c56)ncc34)CC[C@@H]12

>  <Class Assignment>
not fulfilled

$$$$
>  <Compound>
CN1CCC[C@H]1COc1nc2c(c(N3CCC4C(=O)OC4C3)n1)CCN(c1cccc3cccc(Cl)c13)C2 (stereo partly shown)

>  <Class Assignment>
fulfilled

$$$$
>  <Compound>
CN1CCC[C@@H]1COc1nc2c(c(N3CC[C@H]4C(=O)O[C@H]4C3)n1)CCN(c1cccc3cccc(Cl)c13)C2

>  <Class Assignment>
fulfilled

$$$$

====

# Tested On: K-Ras(G12S) (Homo sapiens, UniProt P01116, G12S)
# Assay Info: Covalent modification of recombinant K-Ras(G12S) by whole-protein mass spectrometry
# Assay type: binding
# Parameters: human K-Ras (G12S, aa 1-169); 6xHis tag + TEV cleavage site (N, cleaved yes); made in house; host or cells: E. coli BL21(DE3)
# Applied Conditions: 24-h incubation, 100 μM compound, 23° C., pH 7.5
# Method: Test compounds were prepared as 100× stock solutions in DMSO. K-Ras proteins were diluted with SEC Buffer (20 mM HEPES 7.5, 150 mM NaCl, 1 mM MgCl2) to 400 nM or 1 μM. In a typical reaction, 0.5 μL 100× compound stock was mixed with 50 μL diluted K-Ras protein, and the resulting mixture was incubated for the desired amount of time. The extent of modification was assessed by electrospray mass spectrometry using a Waters Xevo G2-XS system equipped with an Acquity UPLC BEH C4 1.7 μm column. […]
Values of % covalent modification of K-Ras G12S greater than or equal to 20% map to true; values below map to false.

>  <Compound>
CN1CCC[C@@H]1COc1nc2c(c(N3CCC4(CC3)CC(=O)O4)n1)CCN(c1cccc3cccc(Cl)c13)C2

>  <Class Assignment>
false

$$$$
>  <Compound>
CN1CCC[C@@H]1COc1nc2c(c(N3CC[C@H]4OC(=O)[C@@]4(C)C3)n1)CCN(c1cccc3cccc(Cl)c13)C2

>  <Class Assignment>
false

$$$$
>  <Compound>
CN1CCC[C@H]1COc1nc2c(c(N3CCC4C(=O)OC4C3)n1)CCN(c1cccc3cccc(Cl)c13)C2 (stereo partly drawn)

>  <Class Assignment>
true

$$$$
>  <Compound>
O=C1CC(C(=O)N2[C@@H]3CC[C@H]2CN(c2nc(OCC45CCCN4CCC5)nc4c(F)c(-c5cccc6cccc(Cl)c56)ncc24)C3)O1 (stereo partly drawn)

>  <Class Assignment>
true

$$$$
>  <Compound>
CN1CCC[C@@H]1COc1nc2c(c(N3CC[C@H]4C(=O)O[C@H]4C3)n1)CCN(c1cccc3cccc(Cl)c13)C2

>  <Class Assignment>
true

$$$$
>  <Compound>
CN1CCC[C@@H]1COc1nc2c(c(N3CC[C@@]4(C)C(=O)O[C@H]4C3)n1)CCN(c1cccc3cccc(Cl)c13)C2

>  <Class Assignment>
false

$$$$
>  <Compound>
CN1CCC[C@H]1COc1nc2c(c(N3CCC4OC(=O)C4C3)n1)CCN(c1cccc3cccc(Cl)c13)C2 (stereo partly drawn)

>  <Class Assignment>
true

$$$$
>  <Compound>
CN1CCC[C@@H]1COc1nc2c(c(N3CCC4(CC3)CNC4=O)n1)CCN(c1cccc3cccc(Cl)c13)C2

>  <Class Assignment>
false

$$$$
>  <Compound>
CC1(c2cc(NCC(=O)N3CC[C@H]4C(=O)O[C@H]4C3)c(O)cc2Cl)CC1

>  <Class Assignment>
false

$$$$

====

Reported % covalent modification of K-Ras G12E values are given for each entry in this list.
# Tested On: K-Ras G12E (Homo sapiens, UniProt P01116, G12E)
# Construct: human K-Ras (G12E, aa 1-169); 6xHis tag + TEV cleavage site (N, cleaved yes); made in house; host or cells: E. coli BL21(DE3)
# Assay Info: Covalent modification of test protein after incubation with compound
# Type: binding
# Applied Conditions: 24-h incubation with 100 μM compound at 23° C. at pH 7.5

>  <Molecule>
CN1CCC[C@@H]1COc1nc2c(c(N3CC[C@H]4OC(=O)[C@@]4(C)C3)n1)CCN(c1cccc3cccc(Cl)c13)C2 [Compound 12-044]

>  <Endpoint Unit>
%

>  <% covalent modification of K-Ras G12E>
0

$$$$
>  <Molecule>
Cc1ccc2[nH]ncc2c1-c1cc2ncnc(N3CC(C(=O)N[C@H]4COC4=O)C3)c2cc1Cl [Compound 03-099]

>  <Endpoint Unit>
%

>  <% covalent modification of K-Ras G12E>
16.8

$$$$
>  <Molecule>
C#Cc1cccc2cccc(-c3ncc4c(N5C[C@H]6CC[C@@H](C5)N6C(=O)[C@@H]5OC(=O)[C@H]5C(C)C)nc(OCC56CCCN5CCC6)nc4c3F)c12 [(2R, 3S)-5]

>  <Endpoint Unit>
%

>  <% covalent modification of K-Ras G12E>
0

$$$$

Values from patent US20250059187A1
